Where these numbers come from: ChEMBL document CHEMBL4665869

System: SNB-19
Assay: Growth inhibition of human SNB-19 cells at 10 uM relative to control
Assay type: functional
Details: read-out: GI
Could you please report measured inhibition of growth at 10 µM for the items listed next?

Record inhibition of growth at 10 µM per entry; entries follow.
1. COc1cc(/C=C/C2=CC(c3cc(OC)c(OC)c(OC)c3)N3C(C)=CSC3=N2)cc(OC)c1OC (stereo not drawn)
2. CC1=CN2C(=NC(/C=C/c3ccc(Cl)cc3)=CC2c2ccc(Cl)cc2)S1 (stereo not drawn)

### Response
1. < 10%
2. < 10%

### Prompt Field request: inhibition of growth at 10 µM | item: COc1ccc(/C=C/C2=CC(c3ccc(OC)cc3)N3C=CSC3=N2)cc1 (stereo not drawn)
### Response < 10%
